Hello, the source for this data is paper PMC9861830, in case you need it.

Assay: Cell viability assay (MTT)
Type: cell-based, Murine
Conditions: mouse, B16F10 melanoma cells, 100 μM, percentage of control
Metric: viability at 48 h, 100 µM

INPUT: Dear colleague, please send me the reported viability at 48 h, 100 µM for C/C(=N\NC(N)=S)c1cc2ccc(O)c(O)c2oc1=O [T6] when you can.
OUTPUT: > 90%

###

Experiment: DPPH radical scavenging assay
Conditions: ethanol, absorbance at 517 nm, 30 min; mean ± SEM, three experiments
pEC50: −log10 of the molar value.
Metric: pEC50

INPUT: Dear colleague, please send me the reported pEC50 for "C/C(=N\NC(N)=S)c1cc2ccccc2oc1=O" when you can.
OUTPUT: < 3.60

INPUT: Dear colleague, please send me the reported pEC50 for "C/C(=N\NC(N)=S)c1cc2cc(O)ccc2oc1=O" when you can.
OUTPUT: < 3.60

INPUT: Dear colleague, please send me the reported pEC50 for "C/C(=N\NC(N)=S)c1cc2ccc(O)cc2oc1=O" when you can.
OUTPUT: < 3.60
